Test system: HT-1080 cells
experiment-description: Cell viability assay in HT-1080 cells, cotreatment with cell-death inhibitors
Format: cell-based, human
particulars: Homo sapiens, HT-1080, 48 h, cotreated with Ebselen (5 μM), read-out: EC50 (μM) of TKD1079 + inhbitor
experimental-endpoint: EC50 (µM)
One number for each entry, in µM.

INPUT: Provide only the value of recorded EC50 for O=S(=O)(NC1CC2CCC1C2)c1ccc2c(c1)C(=NO)c1cc(S(=O)(=O)NC3CC4CCC3C4)ccc1-2 (stereo not shown) [TKD1079]
OUTPUT: 0.459

====

Tested on: HT-1080 cells
experiment-description: Cell viability assay (Alamar Blue), cytotoxicity in HT-1080 cells
Format: cell-based, human
particulars: Homo sapiens, HT-1080, HT-1080 cells, compound alone; read-out: EC 50
experimental-endpoint: EC50 (µM)
Give bare numbers, in µM.

Study these solved cases before continuing.
{"compound": "O=S(=O)(NC1CCCCC1)c1ccc2c(c1)C(=NO)c1cc(S(=O)(=O)NC3CCCCC3)ccc1-2 [FIN56, reference compound]", "readout-unit": "µM", "EC50": 0.328}
{"compound": "CNS(=O)(=O)c1ccc2c(c1)C(=NO)c1cc(S(=O)(=O)NC)ccc1-2 [TKD1034A]", "readout-unit": "µM", "EC50": 12.1}
{"compound": "CCC(CC)NS(=O)(=O)c1ccc2c(c1)C(=NO)c1cc(S(=O)(=O)NC(CC)CC)ccc1-2 [TKD1034D]", "readout-unit": "µM", "EC50": 0.51}
{"compound": "O=S(=O)(NC1CC2CCC1C2)c1ccc2c(c1)C(=NO)c1cc(S(=O)(=O)NC3CC4CCC3C4)ccc1-2 (centres unmarked)", "readout-unit": "µM", "EC50": 0.079}
{"compound": "O=S(=O)(NC1CCCCC1)c1ccc2c(c1)C(Br)c1cc(S(=O)(=O)NC3CCCCC3)ccc1-2", "readout-unit": "µM", "EC50": 3.56}
{"compound": "CCCNS(=O)(=O)c1ccc2c(c1)C(=NO)c1cc(S(=O)(=O)NCCC)ccc1-2 [TKD1034E]", "readout-unit": "µM", "EC50": 5.67}

Now consider the entry below.
INPUT: Provide only the value of recorded EC50 for `C#CCON=C1c2cc(S(=O)(=O)NC3CCCCC3)ccc2-c2ccc(S(=O)(=O)NC3CCCCC3)cc21`
OUTPUT: 10.8

====

Tested on: HT-1080 cells
experiment-description: Cell viability assay in HT-1080 cells, cotreatment with cell-death inhibitors
Type: cell-based, human
particulars: Homo sapiens, HT-1080, 48 h, cotreated with aToc (100 μM), read-out: EC50 (μM) of TKD1079 + inhbitor
experimental-endpoint: EC50
Quick note: number first, unit second.

INPUT: Provide only the value of recorded EC50 for O=S(=O)(NC1CC2CCC1C2)c1ccc2c(c1)C(=NO)c1cc(S(=O)(=O)NC3CC4CCC3C4)ccc1-2 (stereo not shown) [TKD1079]
OUTPUT: 1.08 µM

====

Test system: HT-1080 cells
experiment-description: Cell viability assay in HT-1080 cells, cotreatment with cell-death inhibitors
Type: cell-based, human
particulars: Homo sapiens, HT-1080, 48 h, cotreated with Selenite (100 nM), read-out: EC50 (μM) of TKD1079 + inhbitor
experimental-endpoint: EC50 (µM)
Numbers only, in µM.

INPUT: Look up and report measured EC50 (HT-1080 cells) for the following compound: O=S(=O)(NC1CC2CCC1C2)c1ccc2c(c1)C(=NO)c1cc(S(=O)(=O)NC3CC4CCC3C4)ccc1-2 (stereo not shown) [TKD1079]
OUTPUT: 0.758
